- Test system: T-47D breast
- ASSAY_OVERVIEW: NCI tumour cell line growth inhibition, 48 h
Overview of recorded GI50 for various compounds

- COMPOUND: "COc1ccccc1C#Cc1ccccc1C#CCCCCO"
  GI50: "18.5 µM"
- COMPOUND: "O=S(=O)(NC1=NCCN1C(=S)SN1CCn2c1nsc2=S)c1cccc2ccccc12"
  GI50: "20.2 µM"
- COMPOUND: "Cc1ncc(C(=O)Nc2ccc(CN3CCN(C)CC3)c(C(F)(F)F)c2)cc1C#Cc1cnc2cccnn12"
  GI50: "1.91 µM"
- COMPOUND: "S=c1snc2n1CCN2"
  GI50: "0.85 µM"
- COMPOUND: "COc1ccc(-c2cs/c(=N\\N=C\\c3ccc(O)cc3O)n2/N=C/c2ccc(O)cc2O)cc1"
  GI50: "1.65 µM"
- COMPOUND: "CC(=O)c1ccc2c(c1)C1C=CCC1[C@H](c1cc3c(cc1Br)OCO3)N2 (stereo partly specified)"
  GI50: "1.74 µM"
- COMPOUND: "COc1cc2ncn(-c3cc(OCc4ccccc4C(F)(F)F)c(C(=O)N(C)C)s3)c2cc1OC"
  GI50: "7.02 µM"
- COMPOUND: "Cc1nc(N)nc2c1CCC(O)S2 (stereo unspecified)"
  GI50: "5.25 µM"
- COMPOUND: "COc1cc(F)c(F)c(Nc2ccc(I)cc2F)c1NS(=O)(=O)C1(C[C@H](O)CO)CC1"
  GI50: "> 4.02 µM"
- COMPOUND: "C=CCn1c(C)nc2ccc(Nc3nc(Nc4ccc(F)cc4)nc4ccccc34)cc21"
  GI50: "1.7 µM"
- COMPOUND: "CC(C)c1c(-c2ccccc2)nc2c(C#N)c[nH]n2c1=O"
  GI50: "25.2 µM"

Recorded values, source PubChem BioAssay (NCI).
